Would you mind telling me the reported koff of each entry?
Biological target: T1, His-tagged soluble human ADAM9 (shADAM9-His) (human, UniProt Q13443 206-697)
T1 construct: Contains an extracellular portion of human ADAM9; also called huADAM9-His; His peptide-tagged soluble huADAM9
T1 sequence: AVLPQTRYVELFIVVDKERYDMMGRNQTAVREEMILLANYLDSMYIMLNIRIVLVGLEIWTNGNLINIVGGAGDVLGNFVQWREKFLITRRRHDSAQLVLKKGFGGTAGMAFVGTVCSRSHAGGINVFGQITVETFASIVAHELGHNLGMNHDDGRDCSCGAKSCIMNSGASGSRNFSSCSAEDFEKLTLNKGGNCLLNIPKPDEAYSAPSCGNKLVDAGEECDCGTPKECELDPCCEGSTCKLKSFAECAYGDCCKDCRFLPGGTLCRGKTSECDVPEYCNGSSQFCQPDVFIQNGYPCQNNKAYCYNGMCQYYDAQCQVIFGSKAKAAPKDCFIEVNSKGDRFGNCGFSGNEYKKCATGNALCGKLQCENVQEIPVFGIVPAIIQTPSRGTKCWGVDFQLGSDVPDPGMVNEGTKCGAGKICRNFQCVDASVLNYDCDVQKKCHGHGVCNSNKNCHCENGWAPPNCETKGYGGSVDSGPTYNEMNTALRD
Assay: SPR (BIACORE), antibody captured, huADAM9-His in flow
Give your result as the value with the unit written after it.

BINDER | koff
hMAB-A (2.2) (antibody, human IgG1, kappa, V domains shown, IgG1 kappa; also called huMAB-A(2.2); parental hMAB-A (2.2)) VH: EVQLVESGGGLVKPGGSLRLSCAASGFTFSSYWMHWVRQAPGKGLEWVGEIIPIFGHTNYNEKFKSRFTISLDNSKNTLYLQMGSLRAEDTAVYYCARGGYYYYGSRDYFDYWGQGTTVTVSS VL: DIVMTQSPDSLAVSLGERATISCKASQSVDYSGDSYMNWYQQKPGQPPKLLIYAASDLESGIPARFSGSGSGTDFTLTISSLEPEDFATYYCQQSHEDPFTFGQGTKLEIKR | 0.00055 s⁻¹
hMAB-A (2C.2) (antibody, human IgG1, kappa, V domains shown, IgG1 kappa; also called MAB-A VH(2C); MAB-A VH(2C.2)) VH: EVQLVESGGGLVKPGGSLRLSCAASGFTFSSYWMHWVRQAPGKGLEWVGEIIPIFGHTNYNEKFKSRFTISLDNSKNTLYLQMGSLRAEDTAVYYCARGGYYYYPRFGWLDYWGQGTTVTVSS VL: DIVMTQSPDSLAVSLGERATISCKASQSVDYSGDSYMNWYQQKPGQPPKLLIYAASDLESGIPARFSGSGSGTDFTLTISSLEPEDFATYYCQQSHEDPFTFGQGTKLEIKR | 0.00081 s⁻¹
hMAB-A (2B.2) (antibody, V domains shown, also called MAB-A VH(2B); MAB-A VH(2B.2)) VH: EVQLVESGGGLVKPGGSLRLSCAASGFTFSSYWMHWVRQAPGKGLEWVGEIIPIFGHTNYNEKFKSRFTISLDNSKNTLYLQMGSLRAEDTAVYYCARGGYYYYIGKGVLDYWGQGTTVTVSS VL: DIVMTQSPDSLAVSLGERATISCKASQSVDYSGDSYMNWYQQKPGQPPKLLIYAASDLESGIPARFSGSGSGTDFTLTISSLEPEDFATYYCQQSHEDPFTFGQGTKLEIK | 0.00039 s⁻¹

# next binder below
Which koff is reported for this binder? hMAB-A (2D.2) (antibody, V domains shown, also called MAB-A VH(2D); MAB-A VH(2D.2)) VH: EVQLVESGGGLVKPGGSLRLSCAASGFTFSSYWMHWVRQAPGKGLEWVGEIIPIFGHTNYNEKFKSRFTISLDNSKNTLYLQMGSLRAEDTAVYYCARGGYYYYTGKGVLDYWGQGTTVTVSS VL: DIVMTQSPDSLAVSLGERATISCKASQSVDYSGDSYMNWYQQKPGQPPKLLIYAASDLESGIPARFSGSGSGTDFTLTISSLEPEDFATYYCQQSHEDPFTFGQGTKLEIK
0.00058 s⁻¹
